For each entry below, report its EC50 value.
assayed_target: T1, recombinant human Nectin4 antigen (human, UniProt Q96NY8 32-349)
T1 construct: construct not described
T1 sequence (looked up): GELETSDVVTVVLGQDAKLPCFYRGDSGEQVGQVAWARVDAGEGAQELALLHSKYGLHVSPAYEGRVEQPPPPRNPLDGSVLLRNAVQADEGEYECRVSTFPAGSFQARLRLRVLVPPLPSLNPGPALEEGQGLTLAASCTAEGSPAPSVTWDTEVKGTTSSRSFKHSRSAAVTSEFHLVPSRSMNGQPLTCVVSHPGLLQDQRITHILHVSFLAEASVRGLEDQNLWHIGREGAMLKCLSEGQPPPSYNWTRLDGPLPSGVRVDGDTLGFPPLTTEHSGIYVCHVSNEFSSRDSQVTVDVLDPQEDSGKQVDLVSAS
assay: ELISA, coated antigen, PSB pH 7.4
Number in µg/mL, nothing else.

Notebook: BAP-143-00-05 (antibody, V domains shown, Used as a conjugate with a linker payload (CAB ADC)) VH: EVQLVESGGGLVQPGGSLRLSCAASGFTFSSYNMNWVRQAPGKGLEWVSYISSSSSTIYYADSVKGRFTISRDNAKNSLSLQMNSLRDEDTAVYYCAEAYYYGMDVWGQGTTVTVSS VL: DIQMTQSPSSVSASVGDRVTITCRASQGISGWLAWYQQKPGKAPKFLIYAASTLQSGVPSRFSGSGSGTDFTLTISSLQPEDFATYYCQQANSFPPTFGGGTKVEIK , EC50 read as 0.141

Notebook: BAP-143-00-06 (antibody, V domains shown, Used as a conjugate with a linker payload (CAB ADC)) VH: EVQLVESGGGLVQPGGSLRLSCAASGFTFSSYNMNWVRQAPGKGLEWVSYISSSSSTIYYADSVKGRFTISRDNAKNSLSLQMNSLRDEDTAVYYCARAYYYGDDVWGQGTTVTVSS VL: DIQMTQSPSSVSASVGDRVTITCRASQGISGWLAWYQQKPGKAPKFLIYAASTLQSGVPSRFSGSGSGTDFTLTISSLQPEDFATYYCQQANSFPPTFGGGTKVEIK , EC50 read as 0.0698
